Each entry below lists one item and its recorded protein stability index value.
B1: TRIM63 (parent)
chain: ANPYWTSRGSSVSMSGGRFRCPTC

variants of: B1; test: protein stability index of a GFP-peptide fusion (GPS, HEK-293T) (PSI 1-6); higher = more stable; details: c terminus: a fixed tail appended;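 also: lentivirally expressed fusions sorted by FACS into six bins by GFP to DsRed ratio, PSI derived from sequencing read proportions per bin multiplied by bin number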

Dear colleague, I am looking for the recorded protein stability index of the following variant: S11V 2.21

Dear colleague, I am looking for the recorded protein stability index of the following variant: Y4I 2.8

Dear colleague, I am looking for the recorded protein stability index of the following variant: S10F 2.56

Dear colleague, I am looking for the recorded protein stability index of the following variant: P22L 1.24

Dear colleague, I am looking for the recorded protein stability index of the following variant: P22K 1.98

Dear colleague, I am looking for the recorded protein stability index of the following variant: V12L 1.29

Dear colleague, I am looking for the recorded protein stability index of the following variant: M14N 2.03
